Tested on: MMP1 expression by SFs
Test: 'MMP assay': MMP1 expression by 'complex trigger' activated synovial fibroblasts (MMP1 ELISA)
Assay type: cell-based, human
Details: Homo sapiens, Fibroblast, RASFs, 48 hrs
pEC50: −log10 of the molar value.

- item smiles: "CC(C)N1CCN(c2ccc(Nc3ncc(-c4ccc(C(N)=O)cc4)n4ccnc34)cc2)CC1"
  pEC50: "6.00 to 6.30"
- item smiles: "CC(C)N1CCN(c2ccc(Nc3ncc(-c4coc(C(N)=O)c4)n4ccnc34)cn2)CC1"
  pEC50: "< 6.00"
- item smiles: "Cc1n[nH]cc1-c1cnc(Nc2ccc(C3CCN(CC(N)=O)CC3)cc2)c2nccn12"
  pEC50: "< 6.00"
- item smiles: "CN1CCN(c2ccc(Nc3ncc(-c4cc(C(N)=O)co4)n4ccnc34)cc2)CC1"
  pEC50: "6.30 to 7.00"
- item smiles: "Cc1oc(-c2cnc(Nc3ccc(N4CCOCC4)cc3)c3nccn23)cc1C(N)=O"
  pEC50: "6.00 to 6.30"
- item smiles: "NC(=O)c1ccc(-c2cnc(Nc3ccc(-n4cncn4)cc3)c3nccn23)cc1"
  pEC50: "6.30 to 7.00"
- item smiles: "O=C1NCc2cc(-c3cnc(Nc4cnc(N5CCOCC5)nc4)c4nccn34)ccc21"
  pEC50: "< 6.00"
- item smiles: "O=C1NCc2cc(-c3cnc(Nc4ccc(N5CCOCC5)nc4)c4nccn34)ccc21"
  pEC50: "< 6.00"

* * *

System: MMP1 expression by SFs
Test: 'MMP assay': MMP1 expression by 'complex trigger' activated synovial fibroblasts (MMP1 ELISA)
Assay type: cell-based, human
Details: Homo sapiens, Fibroblast, RASFs, 48 hrs
pEC50: −log10 of the molar value.
Readings of pEC50 for the listed molecules

- item smiles: "CS(=O)(=O)Nc1ccc(Nc2ncc(-c3cn[nH]c3)n3ccnc23)cc1"
  pEC50: "< 6.00"
- item smiles: "CN1CCN(c2ccc(Nc3ncc(-c4ccc(C(N)=O)nc4)n4ccnc34)cc2)CC1"
  pEC50: "< 6.00"
- item smiles: "CCN(CC)CCNC(=O)c1ccc(Nc2ncc(-c3ccc(S(C)(=O)=O)cc3)n3ccnc23)cc1"
  pEC50: "< 6.00"
- item smiles: "NC(=O)c1ccc(-c2cnc(Nc3cccnc3)c3nccn23)cc1"
  pEC50: "< 6.00"
- item smiles: "N#Cc1ccc(Nc2ncc(-c3cn[nH]c3)n3ccnc23)cc1Cl"
  pEC50: "6.00 to 6.30"
- item smiles: "CCN(CC)CCNC(=O)c1ccc(Nc2ncc(-c3cccnc3)n3ccnc23)cc1"
  pEC50: "< 6.00"
- item smiles: "NC(=O)c1ccc(-c2cnc(Nc3ccc(-n4ccnc4)cc3)c3nccn23)cc1"
  pEC50: "< 6.00"
- item smiles: "C[C@@H]1CN(C)[C@@H](C)CN1c1ccc(Nc2ncc(-c3ccc(C(N)=O)cc3)n3ccnc23)cc1"
  pEC50: "6.30 to 7.00"

* * *

Readings of EC50 for the listed compounds
System: TNFα release by human PBMCs
Test: Cytokine release by LPS-stimulated human PBMCs (TNFα ELISA)
Type: cell-based
Conditions: PBMC, LPS 1 μg/mL, 24 hr
experimental endpoint: EC50

- compound: "NC(=O)c1ccc(-c2cnc(Nc3ccc(-c4cccnc4)cc3)c3nccn23)cc1 [Compound 153]"
  experimental endpoint: "EC50"
  assay value: "1 to 100 nM"
- compound: "CN1CCN(c2ccc(Nc3ncc(-c4csc(C(N)=O)c4)n4ccnc34)cc2)CC1 [Compound 118]"
  experimental endpoint: "EC50"
  assay value: "> 1000 nM"
- compound: "O=C(NC1CCNC1)c1ccc(Nc2ncc(-c3cn[nH]c3)n3ccnc23)cc1 (stereo not shown) [Compound 55]"
  experimental endpoint: "EC50"
  assay value: "> 1000 nM"
- compound: "C[C@@H]1CN(C)[C@@H](C)CN1c1ccc(Nc2ncc(-c3ccc(C(N)=O)cc3)n3ccnc23)cc1 [Compound 137]"
  experimental endpoint: "EC50"
  assay value: "> 1000 nM"

The origin of these recorded values is patent US8178530B2.
